Hi! I'm sharing some IC50 results obtained with TBK1 (Homo sapiens).
Sequence (Q9UHD2 whole entry): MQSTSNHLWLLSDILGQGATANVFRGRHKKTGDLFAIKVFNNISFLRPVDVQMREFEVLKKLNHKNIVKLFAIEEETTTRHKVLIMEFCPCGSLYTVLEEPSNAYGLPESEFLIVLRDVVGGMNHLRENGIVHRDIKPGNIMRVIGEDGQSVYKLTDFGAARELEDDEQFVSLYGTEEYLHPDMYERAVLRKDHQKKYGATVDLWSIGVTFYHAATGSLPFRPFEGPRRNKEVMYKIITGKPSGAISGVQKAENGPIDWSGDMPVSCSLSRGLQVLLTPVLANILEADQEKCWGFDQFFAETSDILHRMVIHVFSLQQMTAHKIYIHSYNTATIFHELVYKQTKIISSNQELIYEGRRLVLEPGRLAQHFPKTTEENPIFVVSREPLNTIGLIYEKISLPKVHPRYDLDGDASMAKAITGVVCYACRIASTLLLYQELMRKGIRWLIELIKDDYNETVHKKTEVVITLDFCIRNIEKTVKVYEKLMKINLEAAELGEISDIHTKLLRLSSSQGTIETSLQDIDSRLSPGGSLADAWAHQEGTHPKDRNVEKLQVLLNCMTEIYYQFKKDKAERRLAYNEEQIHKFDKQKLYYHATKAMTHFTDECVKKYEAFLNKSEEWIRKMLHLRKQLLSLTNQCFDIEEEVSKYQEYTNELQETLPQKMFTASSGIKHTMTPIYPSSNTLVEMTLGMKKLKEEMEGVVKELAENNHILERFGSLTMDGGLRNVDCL
Give bare numbers, in µM.

Recorded IC50, per entry:
| compound | tested on | unit descriptor | measured result |
| --- | --- | --- | --- |
| CC(C)NC(=O)N1CC=C(c2c[nH]c3ncc(-c4ccc(N)c5c4CNC5=O)cc23)CC1 [Example 39] | TBK1 (Homo sapiens) | µM | 0.035 |
| O=C(NC1COC1)N1CC=C(c2c[nH]c3ncc(-c4ccc(CN5CCOCC5)s4)cc23)CC1 [Example 80] | TBK1 (Homo sapiens) | µM | 0.0012 |
| O=C(c1cccs1)N1CC=C(c2c[nH]c3ncc(Nc4ccc(CN5CCOCC5)cc4)cc23)CC1 [Example 250] | TBK1 (Homo sapiens) | µM | 0.17 |
| CS(=O)(=O)c1ccc(-c2cnc3[nH]cc(C4=CCN(C(=O)NC5CCCC5)CC4)c3c2)cc1 [Example 51] | TBK1 (Homo sapiens) | µM | 0.051 |
| O=C(c1ccc(-c2cnc3[nH]cc(C4=CCN(C(=O)c5cccs5)CC4)c3c2)cc1)N1CCOCC1 [Example 209] | TBK1 (Homo sapiens) | µM | 0.007 |

Quick one: give me IC50 for each item below, same order please.
1. O=C(NC1CCCC1)N1CC=C(c2c[nH]c3ncc(-c4ccc(C(=O)N5CCOCC5)s4)cc23)CC1 [Example 74]
2. CC(C)NC(=O)N1C(C)C=C(c2c[nH]c3ncc(-c4ccc(CN5CCOCC5)s4)cc23)CC1C (stereo not shown) [Example 115]

[out]
0.053
0.36
